- Measurement target: recombinant human MEK 1 (MAPKK) and recombinant human ERK2 (MAPK)
- Method description: Mitogen Activated Protein Kinase (MAPK) assay, two component coupled MEK 1 / ERK2;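 further: MEK 1-activated ERK2 phosphorylates MBP or Myc peptide with 33P-ATP, filter capture and scintillation counting, inhibitor preincubated with ERK2 30 min at 0 °C, inhibition relative to uninhibited control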
- Experimental conditions: separate entries for the same compound = evaluated more than one time
Property: IC50

• COc1ccc(Nc2c(C#N)cnc3c(OC)cccc23)cc1O = > 100 µM

Input: Reported IC50 for recombinant human MEK 1 (MAPKK) and recombinant human ERK2 (MAPK), given "CC#CC(=O)Nc1ccc2ncc(C#N)c(Nc3cccc(C(C)C)c3)c2c1" ?
Output: > 100 µM

Input: Reported IC50 for recombinant human MEK 1 (MAPKK) and recombinant human ERK2 (MAPK), given "COc1cc([N+](=O)[O-])cc2c(Nc3ccc(C)c(O)c3)c(C#N)cnc12" ?
Output: > 100 µM

* * *

In this section, each of the molecules is paired with its reported pIC50.
- Measurement target: His-tagged cytoplasmic domain of EGFR (Homo sapiens)
- Construct: containing the EGFR cDNA encoding amino acids 645 - 1186 preceded by Met-Ala-(His)6; made in house; host or cells: Sf9 cells, recombinant baculovirus vHcEGFR52
- Sequence (P00533 669-1210): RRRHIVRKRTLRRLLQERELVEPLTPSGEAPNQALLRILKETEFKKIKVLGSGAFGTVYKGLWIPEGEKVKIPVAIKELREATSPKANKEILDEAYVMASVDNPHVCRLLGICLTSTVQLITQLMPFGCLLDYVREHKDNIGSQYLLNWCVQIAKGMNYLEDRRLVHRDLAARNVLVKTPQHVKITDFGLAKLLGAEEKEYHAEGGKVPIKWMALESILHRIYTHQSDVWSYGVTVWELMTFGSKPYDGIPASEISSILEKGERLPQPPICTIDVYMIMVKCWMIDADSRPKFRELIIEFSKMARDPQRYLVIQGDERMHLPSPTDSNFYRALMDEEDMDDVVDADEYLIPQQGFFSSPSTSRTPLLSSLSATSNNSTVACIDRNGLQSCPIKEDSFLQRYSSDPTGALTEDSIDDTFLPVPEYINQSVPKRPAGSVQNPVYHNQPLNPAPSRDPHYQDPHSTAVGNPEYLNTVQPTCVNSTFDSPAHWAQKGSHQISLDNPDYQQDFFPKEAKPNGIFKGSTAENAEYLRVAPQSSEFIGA
- Method description: Inhibition of Epidermal Growth Factor Receptor Kinase (EGF-R) using recombinant enzyme;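 further: radiometric kinase assay measuring radiolabeled phosphate transfer from ATP onto the peptide tyrosine by scintillation counting, control is reaction without compound, background subtracted, IC50 from dose-response curve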
- Format: biochemical
- Experimental conditions: recombinant enzyme; RR-SRC peptide; average of the number of tests; read-out: IC50
To interpret pIC50, take it as minus log10 of a concentration measured in moles per litre.

- C=CC(=O)Nc1ccc2ncc(C#N)c(Nc3cccc(C#N)c3)c2c1: 8.70
- COc1cc2c(Nc3cccc(Br)c3)c(C#N)cnc2cc1OCCCN1CCOCC1: 6.40
- C=CC(=O)Nc1ccc2ncc(C#N)c(Nc3ccc(Br)cc3)c2c1: 6.30

Next molecule, pIC50 to be filled in.
Input: Using the record for "CN(C)CC#CC(=O)Nc1ccc2ncc(C#N)c(Nc3ccc(F)c(Cl)c3)c2c1" , report its pIC50.
Output: 8.72

* * *

- Test system: CCL228
- Method description: Inhibition of cancer cell growth as measured by cell number, CCL228
- Format: cell-based
- Experimental conditions: Homo sapiens, 48 h, read-out: IC50 CCL228
Property: IC50

• COc1cc2ncc(C#N)c(Nc3cccc(CO)c3)c2cc1OC = > 100 µg/mL
• N#Cc1cnc2ccc([N+](=O)[O-])cc2c1Nc1cccc(Br)c1 = > 100 µg/mL

Next compound, IC50 to be filled in.
Input: Using the record for "COc1cc2ncc(C#N)c(Nc3cccc(C#N)c3)c2cc1OC" , report its IC50.
Output: > 100 µg/mL

* * *

In this section, each of the molecules is paired with its reported IC50.
- Tested on: MCF7
- Method description: Inhibition of cancer cell growth as measured by cell number, MCF7;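 further: MCF7 was included as a line with little or no EGFR or HER2/neu expression, in contrast to the receptor-overexpressing lines of the panel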
- Type: cell-based, human
- Experimental conditions: Homo sapiens, MCF7, 48 h, read-out: IC50 MCF7, cell number, Sulforhodamine B, 48 hours exposure; Table 8
Quick note: give the figure in µg/mL, leave out the unit.

- CN(C)Cc1cc(N)cc2c(Nc3cccc(Br)c3)c(C#N)cnc12: 37.9
- C=CC(=O)Nc1ccc2ncc(C#N)c(Nc3ccc(F)c(F)c3)c2c1: 2.57
- CCOc1cc2ncc(C#N)c(Nc3ccc(Sc4ccccc4)c(Cl)c3)c2cc1OCC: 0.07

Next molecule, IC50 to be filled in.
Input: Reported IC50 for MCF7, given "CN(C)Cc1cc([N+](=O)[O-])cc2c(Nc3cccc(Br)c3)c(C#N)cnc12" ?
Output: 7.97
